test system: human SMAD7 mRNA; test: Antisense inhibition of human SMAD7 mRNA expression in Hep3B cells by 3-10-3 cEt gapmers, 10,000 nM, electroporation (Example 2); assay type: cell-based; conditions: Hep3B cells, electroporation with 10,000 nM antisense oligonucleotide, approximately 24 hours, SMAD7 mRNA by RT-PCR (RTS5062), relative to untreated control cells
Strand notation (5' to 3'): a small letter for the sugar, then the base; units joined by * are phosphorothioate-linked, units joined directly phosphodiester-linked; [ ] holds rarer units or linkages, { } end groups; capitals alone tell only the bases. k = constrained ethyl (cEt); [5mC] = 5-methylcytosine; d = 2'-deoxy (DNA)
Would you mind telling me the reported % Inhibition of each entry?
Enter the number, and then the unit.

830109 (kA*kT*kT*d[5mC]*dA*dT*dT*dA*dA*dG*d[5mC]*d[5mC]*d[5mC]*kG*k[5mC]*kT; antisense) [compound 830109] :: 44%
799868 (k[5mC]*kA*kT*dA*dA*dA*d[5mC]*dA*dT*dG*dG*dG*d[5mC]*kT*k[5mC]*k[5mC]; antisense) [compound 799868] :: 34%
799903 (antisense kT*kG*k[5mC]*dA*dT*dG*dG*d[5mC]*dA*dT*dT*dG*dT*k[5mC]*kT*kG) [compound 799903] :: 34%

So what's the measured % Inhibition for this one? 799962 (antisense k[5mC]*k[5mC]*kA*dA*d[5mC]*d[5mC]*d[5mC]*d[5mC]*dA*dG*dA*dG*dG*kT*kG*kA) [compound 799962]
0%

###

test system: human SMAD7 mRNA; test: Antisense inhibition of human SMAD7 mRNA expression in Hep3B cells by 5-10-5 MOE gapmers, single concentration, electroporation, RT-PCR (Example 1, Study 1 and 2); assay type: cell-based; conditions: electroporation with 15,000 nM antisense oligonucleotide (Study 2), 5-10-5 MOE gapmers targeting SEQ ID NO: 1 and 2
Strand notation (5' to 3'): a small letter for the sugar, then the base; units joined by * are phosphorothioate-linked, units joined directly phosphodiester-linked; [ ] holds rarer units or linkages, { } end groups; capitals alone tell only the bases. e = 2'-O-(2-methoxyethyl) (MOE); [5mC] = 5-methylcytosine; d = 2'-deoxy (DNA)
Would you mind telling me the reported % inhibition of SMAD7 mRNA expression of each entry?
One number for each entry, in %.

771451 (antisense eA*eG*eA*e[5mC]*eT*d[5mC]*dT*dA*dG*dT*dT*d[5mC]*dG*d[5mC]*dA*eG*eA*eG*eT*e[5mC]) [compound 771451] :: 15
771665 (antisense eA*eA*eT*eG*e[5mC]*dT*dA*dA*dA*dT*dT*dT*d[5mC]*d[5mC]*dA*eA*eT*eG*eA*eG) [compound 771665] :: 24

For each of the items listed, what is its % inhibition of SMAD7 mRNA expression?
1. 771641 (antisense eA*eG*eT*eT*eA*dG*dG*dT*dG*dT*d[5mC]*dA*dG*d[5mC]*d[5mC]*eT*eA*eG*eG*eA) [compound 771641]
2. 771680 (antisense eA*eT*eT*eT*eA*dT*dA*dT*dT*dA*dA*dA*dG*d[5mC]*dA*eA*eA*eG*eT*eG) [compound 771680]
3. 771674 (antisense eA*eT*eA*eA*eA*dT*d[5mC]*dT*d[5mC]*dA*dG*dG*dT*dT*dT*eT*eT*eT*eT*eT) [compound 771674]
4. 771617 (antisense e[5mC]*eA*eG*eT*eG*d[5mC]*dT*dG*dA*dG*d[5mC]*dT*dG*dG*dT*eT*eT*eT*e[5mC]*eT) [compound 771617]

[71, 0, 0, 10]

###

system: human SMAD7 mRNA; assay: Antisense inhibition of human SMAD7 mRNA expression in Hep3B cells by 3-10-3 cEt gapmers, 10,000 nM, electroporation (Example 2); type: cell-based; details: Hep3B cells, electroporation with 10,000 nM antisense oligonucleotide, approximately 24 hours, primer probe set RTS5062, relative to untreated control cells
Strand notation (5' to 3'): a small letter for the sugar, then the base; units joined by * are phosphorothioate-linked, units joined directly phosphodiester-linked; [ ] holds rarer units or linkages, { } end groups; capitals alone tell only the bases. k = constrained ethyl (cEt); [5mC] = 5-methylcytosine; d = 2'-deoxy (DNA)
Value Kind: % inhibition of SMAD7 mRNA expression (%)
Give bare numbers, in %.

798690 (antisense kG*kG*k[5mC]*dT*d[5mC]*d[5mC]*dT*d[5mC]*d[5mC]*dA*dG*dA*dG*kA*k[5mC]*kG) [compound 798690] :: 29

For each of the items listed, what is its % inhibition of SMAD7 mRNA expression?
1. 799063 (antisense kT*kG*kG*dT*dT*d[5mC]*dT*dG*dG*dT*dT*d[5mC]*dG*kG*k[5mC]*k[5mC]) [compound 799063]
2. 798686 (antisense kG*kA*kG*dG*dA*dG*dG*d[5mC]*dG*dA*dG*dG*dA*kG*kA*kA) [compound 798686]
3. 799089 (antisense kA*kG*k[5mC]*dA*dA*dT*dA*d[5mC]*dT*dG*dT*dG*dA*kG*kG*kG) [compound 799089]

1: 9; 2: 59; 3: 60

###

Tested on: human SMAD7 mRNA
Assay: Antisense inhibition of human SMAD7 mRNA expression in Hep3B cells by 3-10-3 cEt gapmers, 10,000 nM, electroporation (Example 2)
Type: cell-based
Details: Hep3B cells, electroporation, 10,000 nM, approximately 24 hours; 3-10-3 cEt gapmers targeting SEQ ID NO: 3 and 4
Experimental: Antisense oligonucleotides were designed to target human SMAD7 mRNA and were tested for their effects on SMAD7 mRNA expression in vitro. […] After a treatment period of approximately 24 hours, RNA was isolated from the cells and SMAD7 mRNA levels were measured by quantitative real-time PCR. […] SMAD7 mRNA levels were adjusted according to total RNA content, as measured by RIBOGREEN®. […]
Strand notation (5' to 3'): a small letter for the sugar, then the base; units joined by * are phosphorothioate-linked, units joined directly phosphodiester-linked; [ ] holds rarer units or linkages, { } end groups; capitals alone tell only the bases. k = constrained ethyl (cEt); [5mC] = 5-methylcytosine; d = 2'-deoxy (DNA)
Rule: % inhibition of SMAD7 mRNA expression under 40% gives Not fulfilled, otherwise Fulfilled.

# check: % inhibition of SMAD7 mRNA expression of 799240 (kA*kT*k[5mC]*dT*dG*dG*dA*d[5mC]*dA*dG*dT*d[5mC]*dA*kG*kT*kT; antisense) [compound 799240] is greater than or equal to 40%
Fulfilled

Could you do the same for 829941 (k[5mC]*kA*kG*dT*d[5mC]*dA*dG*dT*dT*dG*dG*dT*dT*kT*kG*kA; antisense) [compound 829941] , please?
Not fulfilled

Could you do the same for 790636 (kA*kG*k[5mC]*dA*dT*d[5mC]*dT*dG*dG*dA*d[5mC]*dA*dG*kT*k[5mC]*kA; antisense) [compound 790636] , please?
Fulfilled

Could you do the same for 829942 (kG*k[5mC]*kA*dT*d[5mC]*dT*dG*dG*dA*d[5mC]*dA*dG*dT*k[5mC]*kA*kG; antisense) [compound 829942] , please?
Fulfilled

Could you do the same for 829940 (kG*kT*k[5mC]*dA*dG*dT*dT*dG*dG*dT*dT*dT*dG*kA*kG*kA; antisense) [compound 829940] , please?
Not fulfilled

Could you do the same for 799239 (kT*k[5mC]*kA*dG*dT*dT*dG*dG*dT*dT*dT*dG*dA*kG*kA*kA; antisense) [compound 799239] , please?
Not fulfilled

###

test system: human SMAD7 mRNA; test: Dose-dependent inhibition of human SMAD7 mRNA expression in Hep3B cells (Example 3, Study 1 and 2); format: cell-based; details: 20000.0 nM, electroporation, approximately 16 hours, Study 2
Strand notation (5' to 3'): a small letter for the sugar, then the base; units joined by * are phosphorothioate-linked, units joined directly phosphodiester-linked; [ ] holds rarer units or linkages, { } end groups; capitals alone tell only the bases. k = constrained ethyl (cEt); [5mC] = 5-methylcytosine; d = 2'-deoxy (DNA)
Value Kind: % inhibition of SMAD7 mRNA expression (%)
Give bare numbers, in %.

Reference set (2 entries):
799854 (kG*k[5mC]*k[5mC]*dA*dA*dG*dT*dG*dT*d[5mC]*d[5mC]*dA*dT*k[5mC]*kA*kA; antisense) [compound 799854] :: 79
799589 (kA*kA*kT*dA*dT*d[5mC]*dT*dG*dT*dG*dT*d[5mC]*dT*kA*k[5mC]*kA; antisense) [compound 799589] :: 82

For each of the items listed, what is its % inhibition of SMAD7 mRNA expression?
1. 829994 (GGAGGCAGGGCCGCGA; 3-10-3 cEt gapmer, further chemistry not given here) [compound 829994]
2. 799404 (antisense kG*kG*kA*dA*d[5mC]*dA*dT*dT*dT*dA*d[5mC]*d[5mC]*d[5mC]*k[5mC]*kT*kG) [compound 799404]
3. 830025 (antisense TTTGTAAATCGAAAGC; 3-10-3 cEt gapmer, further chemistry not given here) [compound 830025]
4. 799568 (k[5mC]*kA*kT*dT*dA*dG*dA*dA*dG*d[5mC]*dT*dT*dT*kG*kA*kG; antisense) [compound 799568]
5. 798687 (antisense kG*kG*k[5mC]*dG*dA*dG*dG*dA*dG*dG*d[5mC]*dG*dA*kG*kG*kA) [compound 798687]

[80, 59, 88, 92, 61]
